- MEASUREMENT_TARGET: T1, human CD71 extracellular domain (human, UniProt P02786 89-760)
- T1 construct: also called hCD71; human CD71-ECD
- T1 sequence (P02786 89-760): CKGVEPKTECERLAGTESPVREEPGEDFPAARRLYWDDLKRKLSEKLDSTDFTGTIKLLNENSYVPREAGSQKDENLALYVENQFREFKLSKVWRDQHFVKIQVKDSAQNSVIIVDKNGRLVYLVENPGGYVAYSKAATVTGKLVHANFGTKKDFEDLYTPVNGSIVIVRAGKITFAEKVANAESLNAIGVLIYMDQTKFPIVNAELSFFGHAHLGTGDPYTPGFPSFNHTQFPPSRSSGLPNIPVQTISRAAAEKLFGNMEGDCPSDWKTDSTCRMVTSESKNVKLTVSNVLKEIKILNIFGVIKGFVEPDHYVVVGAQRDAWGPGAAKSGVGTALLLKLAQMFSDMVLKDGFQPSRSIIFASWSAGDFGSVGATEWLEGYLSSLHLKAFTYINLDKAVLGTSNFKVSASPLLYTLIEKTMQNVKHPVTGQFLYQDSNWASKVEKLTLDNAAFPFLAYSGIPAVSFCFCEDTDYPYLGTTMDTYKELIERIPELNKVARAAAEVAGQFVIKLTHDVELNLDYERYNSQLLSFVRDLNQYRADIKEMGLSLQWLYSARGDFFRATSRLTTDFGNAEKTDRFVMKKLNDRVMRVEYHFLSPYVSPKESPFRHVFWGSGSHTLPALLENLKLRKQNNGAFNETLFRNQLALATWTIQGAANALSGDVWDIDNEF
- ASSAY_COMMENT: primary ELISA, signal ratio to HSA
Consider the following binders and their measured hCD71:HSA readings.
Please give the numeric answer without any surrounding text.

{"BINDER": "CD71-binding FN3 domain of SEQ ID NO: 194 (designed binder) MSLPAPKNLVVSRVTEDSARLSWTAPDAAFDSFEIGYFENLYLGEAIVLTVPGSERSYDLTGLKPGTEYPVWIGGVKGGTWSVPLSTIFTT", "RESULT": 52}
{"BINDER": "CD71-binding FN3 domain of SEQ ID NO: 130 (designed binder) MSLPAPKNLVVSRVTEDSARLSWTAPDAAFDSFEIAYFERTWFGEAIVLTVPGSERSYDLTGLKPGTEYWVQIGGVKGGDWSAPLSAIFTT", "RESULT": 147}
{"BINDER": "CD71-binding FN3 domain of SEQ ID NO: 174 (designed binder) MSLPAPKNLVVSRVTEDSARLSWTAPNAAFDSFEIGYFENLYLGEAIVLTVPGSERSYDLTGLKPGTEYWVQIGGVKGGNWSAPLSAIFTT", "RESULT": 127}

According to the records, this binder CD71-binding FN3 domain of SEQ ID NO: 177 (designed binder) MSLPAPKNLVVSRVTEDSARLSWTAPDAAFDSFEIGYFENLYLGEAIVLTVPGSERSYDLTSLKPGTEYWVQIGGVKGGNWSAPLSAIFTT displays hCD71:HSA of 110

Entry CD71-binding FN3 domain of SEQ ID NO: 141 (designed binder) MSLPAPKNLVVSRVTEDSARLSWTAPDAAFDSFEIGYFENLYLGEAIVLTVPGSERSYDLTGLKPGTEYWVQIGGVKGGNWSAPLSAYFTT , hCD71:HSA reported as 192

Looking up CD71-binding FN3 domain of SEQ ID NO: 151 (designed binder) MSLPAPKNLVVSRITEDSARLSWTAPDAAFDSFEIAYFETCRTGEAIVLTVPGSERSYDLTGLKPGTEYRVWIGGVKGGVWSRPLSAIVTT , I found its hCD71:HSA recorded as 22

hCD71:HSA for CD71-binding FN3 domain of SEQ ID NO: 203 (designed binder) MSLPAPKNLVVSRVTEDFARLSWTAPDAAFDSFEIAYWEQSYTGEAIVLTVPGSERSYDLTGLKPGTEYFVHIGGVKGGVWSTPLSAIFTT is 168

Note to self: hCD71:HSA recorded for CD71-binding FN3 domain of SEQ ID NO: 168 (designed binder) MSLPAPKNLVVSRVTEDSARLSWTAPDAAFDSFIIGYLEPQPPDEAIALYVPGSERSYDLTGLKPGTEYNVTIQGVKGGFPSLPLVATFTT was 32

The reported hCD71:HSA of the binder CD71-binding FN3 domain of SEQ ID NO: 186 (designed binder) MSLPAPKNLVVSRVTEDSARLSWTAPDAAFDSFEIGYFENPYLGEAIVLTVPGSERSYDLTGLKPGTEYWVQIGGVKGGNWSAPLSAIFTT was 117
